All values here come from patent US12447153B2.

# Assay target: ErbB2 with Exon 20 YVMA insertion (HER2-YVMA) (Homo sapiens (Human), UniProt P04626, INS775YVMA)
# Sequence (P04626 other isoform, or with tags, fused parts or gaps ins YVMA behind 775): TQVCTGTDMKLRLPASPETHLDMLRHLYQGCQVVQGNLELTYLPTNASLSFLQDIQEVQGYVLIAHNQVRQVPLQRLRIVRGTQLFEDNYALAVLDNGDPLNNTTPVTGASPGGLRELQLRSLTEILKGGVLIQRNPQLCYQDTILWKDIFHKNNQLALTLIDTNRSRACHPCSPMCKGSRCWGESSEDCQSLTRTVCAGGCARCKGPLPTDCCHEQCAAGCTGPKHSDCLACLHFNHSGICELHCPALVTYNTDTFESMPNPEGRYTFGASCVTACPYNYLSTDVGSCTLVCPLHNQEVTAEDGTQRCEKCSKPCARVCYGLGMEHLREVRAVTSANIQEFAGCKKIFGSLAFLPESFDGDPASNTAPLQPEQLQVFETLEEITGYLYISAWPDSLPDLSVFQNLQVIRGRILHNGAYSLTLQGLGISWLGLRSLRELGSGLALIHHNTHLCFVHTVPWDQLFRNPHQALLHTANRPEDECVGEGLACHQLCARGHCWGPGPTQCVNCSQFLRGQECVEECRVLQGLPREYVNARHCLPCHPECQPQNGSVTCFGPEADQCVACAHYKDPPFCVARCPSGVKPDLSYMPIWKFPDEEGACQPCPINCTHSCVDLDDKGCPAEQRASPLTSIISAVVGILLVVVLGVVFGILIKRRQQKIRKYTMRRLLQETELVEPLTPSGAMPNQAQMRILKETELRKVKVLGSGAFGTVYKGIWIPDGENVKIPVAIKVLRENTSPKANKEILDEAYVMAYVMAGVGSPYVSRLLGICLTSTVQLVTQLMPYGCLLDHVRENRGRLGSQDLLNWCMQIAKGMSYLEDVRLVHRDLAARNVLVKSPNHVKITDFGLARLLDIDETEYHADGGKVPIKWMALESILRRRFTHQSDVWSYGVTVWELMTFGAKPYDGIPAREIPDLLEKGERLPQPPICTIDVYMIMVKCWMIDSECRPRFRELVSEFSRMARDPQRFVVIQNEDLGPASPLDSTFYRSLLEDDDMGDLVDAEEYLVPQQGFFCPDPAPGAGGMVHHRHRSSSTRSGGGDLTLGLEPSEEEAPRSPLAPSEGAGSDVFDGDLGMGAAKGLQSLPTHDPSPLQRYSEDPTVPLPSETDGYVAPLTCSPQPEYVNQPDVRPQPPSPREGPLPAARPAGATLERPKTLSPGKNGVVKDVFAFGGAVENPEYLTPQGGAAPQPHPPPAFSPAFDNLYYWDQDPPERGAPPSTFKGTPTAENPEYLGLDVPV
# Assay text: Cellular Phosphorylation Assay, Assay 4 (constitutive ErbB2 phosphorylation, NIH 3T3 cells)
# Type: cell-based
# Run conditions: cellular ErbB2 YVMA phosphorylation
pIC50: −log10 of the molar value.
Recorded metric: pIC50

| Compound | Recorded metric | Measurement |
| --- | --- | --- |
| C=CC(=O)N1C[C@H]2CC[C@H](c3ccc4ncnc(Nc5ccc(Oc6ccn7ncnc7c6)c(C)c5)c4n3)[C@H]2C1 [Example 409] | pIC50 | 7.46 |
| C=CC(=O)N1CCN(c2ccc3ncnc(Nc4ccc(Oc5cc(F)c6c(c5)ncn6C)c(C)c4)c3n2)C[C@H]1CC [Example 282] | pIC50 | 7.84 |
| C=CC(=O)N1CCCC(c2ccc3ncnc(Nc4cc(C)c(Oc5cnc6c(c5)ncn6C)cc4F)c3n2)CC1 (stereo not drawn) [Example 412] | pIC50 | 7.53 |
| C=CC(=O)N1C2CCC1CN(c1ccc3ncnc(Nc4ccc(Oc5ccn6ncnc6c5)c(C)c4F)c3n1)C2 [Example 444] | pIC50 | 8.23 |
| C=CC(=O)N1C[C@@H]2C[C@H](c3ccc4ncnc(Nc5cc(C)c(Oc6ccn7ncnc7c6)cc5F)c4n3)C[C@H]1C2 [Example 390] | pIC50 | 7.52 |
| C=CC(=O)N1CCN(c2ccc3ncnc(Nc4ccc(Oc5ccn6ncnc6c5)c(Cl)c4F)c3n2)CC1C(F)F (stereo not drawn) [Example 366] | pIC50 | 8.28 |
| C=CC(=O)N1CCCC(c2ccc3ncnc(Nc4cc(C)c(Oc5ccn6ncnc6c5)cc4F)c3n2)C1 (stereo not drawn) [Example 370] | pIC50 | 7.33 |
| CC#CC(=O)N1C[C@@H]2C[C@H]1CN2c1ccc2ncnc(Nc3ccc(Oc4ccn5ncnc5c4)c(Cl)c3F)c2n1 [Example 316] | pIC50 | 7.21 |
| C=CC(=O)N1C[C@H]2C[C@@H]1[C@H](c1ccc3ncnc(Nc4ccc(Oc5cnc6c(c5)ncn6C)c(C)c4F)c3n1)C2 [Example 418] | pIC50 | 7.47 |
